# Tested on: wheat germ agglutinin (Triticum aestivum), Alexa647-labelled
# EXPERIMENT: Alexa647-WGA lectin binding to printed small molecules – biochemical, small-molecule microarray, 635/667 nm fluorescence, artefact control for SMM control-protein annotation, profiling panel (AID 1140);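 note: score merges 667 nm feature emission with signal to noise over triplicate slides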
# TEST_CONTEXT: WGA-A647 binding, 635 nm fluorescence, higher = more signal
composite z-score vs 0.6: at or above is Yes, below is No.

Worked set:
[
  {
    "COMPOUND": "CC(C)C(CO)N1C(=O)[C@@H]2[C@H]3C(=O)OCC=C[C@H]3OC23C=CCN(Cn2nnc4ccccc42)C(=O)[C@@H]13 (some centres undefined)",
    "CLASS_ASSIGNMENT": "No"
  },
  {
    "COMPOUND": "O=c1c2ccc(Br)cc2nc(-c2ccccc2)n1Cc1cccc(O)c1",
    "CLASS_ASSIGNMENT": "Yes"
  },
  {
    "COMPOUND": "CC(C)N1CC=CC23O[C@@H]4C=CCOC(=O)[C@@H]4[C@H]2C(=O)N(CCCCCCO)[C@@H]3C1=O (some centres undefined)",
    "CLASS_ASSIGNMENT": "Yes"
  },
  {
    "COMPOUND": "O=C1N(Cc2ccccc2)c2ccccc2[C@H]2OC(c3ccc(OCCCO)cc3)=N[C@@]12CCS(=O)(=O)c1ccccc1",
    "CLASS_ASSIGNMENT": "Yes"
  },
  {
    "COMPOUND": "COC(=O)C(CC#Cc1ccc2c(c1)[C@]1(C(=O)N2)[C@H](C(=O)N2CCc3cc(OC)c(OC)cc3C2)[C@H]2C(=O)O[C@H](c3ccccc3)[C@H](c3ccccc3)N2[C@@H]1c1ccc(O)cc1)C(=O)OC",
    "CLASS_ASSIGNMENT": "Yes"
  }
]

Item Cc1ccc(S[C@]2(C(=O)O)CC(=O)N(Cc3ccccc3C(F)(F)F)[C@@H]2c2ccc(CO)cc2)cc1 with composite z-score of 0.6 or above? No

Would you mind doing CN(C)CCCN1C(=O)[C@@]2(Cc3ccccc31)c1ccccc1C(=O)N(Cc1ccccc1)[C@H]2c1ccc(CO)cc1 as well? No

Would you mind doing O=C1NC(=O)C2C1C=CC(C(O)c1ccc(-c3ccccc3)s1)N2Nc1ccccn1 (centres undefined) as well? Yes

Would you mind doing O=C1NC(=O)C2C1C=CC(C(O)c1ccc3c(c1)OCO3)N2Nc1ccc(Cl)cc1Cl (centres undefined) as well? Yes

Would you mind doing C[C@H]1ON(c2ccccc2)[C@@H](c2ccccc2)[C@@H]1C(=O)N1C(=O)OC[C@@H]1c1ccccc1 as well? No

Would you mind doing C=C(C(=O)CC[C@H](OC(=O)c1cccnc1)c1ccc(OCCO)cc1)C(C)C as well? No

Would you mind doing CN(C)C(=O)[C@]1(Cc2ccccc2N=[N+]=[N-])N=C(c2ccc(OCCCO)cc2)O[C@@H]1c1ccccc1CN=[N+]=[N-] as well? Yes

Would you mind doing COC(=O)[C@@]1(Cc2ccccc2)[C@H]2c3cc(C(=O)N(C)C)n(Cc4ccc(O)c(OC)c4)c3C[C@H]2CN1C(=O)c1ccccc1 as well? No

Would you mind doing CC(=O)NCCCC[C@@H]1NC(=O)[C@@H]2C[C@H](C(=O)NCCCC[N+](C)(C)C)[C@H](c3cccc(OCCO)c3)N2C1=O as well? Yes

Would you mind doing COCC(=C=CC[C@@H](O)c1ccccc1OCCO)C[C@@H](O)COCc1ccccc1 as well? Yes

Would you mind doing CC(C)=CCCC(C)=CC(O)C1C=CC2C(=O)N(c3ccccc3)C(=O)C2N1Nc1ccc([N+](=O)[O-])cc1 (centres undefined) as well? Yes

Would you mind doing COCCCNC(=O)[C@@]1(C)c2ccccc2C(=O)N(c2ccc(C)cn2)[C@H]1c1ccc(CO)cc1 as well? No

Would you mind doing CCCCC(=C=CC[C@H](O)c1cccc(OCCO)c1)C[C@H](O)COCc1ccccc1 as well? No

Would you mind doing COCCCNC(=O)[C@]1(Cc2ccccc2)N=C(c2ccc(OCCCO)cc2)O[C@@H]1c1ccccc1N=[N+]=[N-] as well? No

Would you mind doing COCCOC(=O)N1C(=O)[C@@]2(c3cc(C#CCNC(N)=O)ccc31)[C@H](C(N)=O)[C@H]1C(=O)O[C@H](c3ccccc3)[C@H](c3ccccc3)N1[C@@H]2c1ccc(OCCO)cc1 as well? No

Would you mind doing C=CC[C@]1(C(=O)N2CCOCC2)N=C(c2ccc(OCCCO)cc2)O[C@H]1c1ccccc1CN=[N+]=[N-] as well? Yes

Would you mind doing COc1ccc([Si](C)(C)[C@H]2[C@H](CCO)O[C@@]3(C(=O)N(Cc4cccc(N5CCOC5=O)c4)c4ccccc43)[C@@H]2C)cc1 as well? Yes

Would you mind doing O=C1N(CCS(=O)(=O)c2ccccc2)c2ccccc2[C@H]2OC(c3ccc(OCCCO)cc3)=N[C@@]12CCS(=O)(=O)c1ccccc1 as well? Yes
